Test system: 931267-113-T-J1-PDC multicell spheroid viability
assay comment: Anticancer human tumor 931267-113-T-J1-PDC patient-derived colon adenocarcinoma cell line growth inhibition [PI3K]
measurement conditions: second compound 0.0316 µM; first compound 0.3 µM; hits give low values
readout label: viability, T/C (%)
Express it in %; write the number only.

Give its viability, T/C value. Item: Cn1cnc2c(F)c(Nc3ccc(Br)cc3Cl)c(C(=O)NOCCO)cc21 + CC(Nc1ncnc2nc[nH]c12)c1cc2cccc(Cl)c2c(=O)n1-c1ccccc1 38.4

Try Cn1cnc2c(F)c(Nc3ccc(Br)cc3Cl)c(C(=O)NOCCO)cc21 + Cc1nc(NC(=O)N2CCCC2C(N)=O)sc1-c1ccnc(C(C)(C)C(F)(F)F)c1 next. 32.2

And then Cn1cnc2c(F)c(Nc3ccc(Br)cc3Cl)c(C(=O)NOCCO)cc21 + COc1c(OCCCN2CCOCC2)ccc2c3n(c(=NC(=O)c4cnc(N)nc4)nc12)CCN3 , what is it? 17.5

Could you now consider this next molecule?
Would you kindly share the measured viability, T/C for Cn1cnc2c(F)c(Nc3ccc(Br)cc3Cl)c(C(=O)NOCCO)cc21 + CC(Nc1ccc2c(c1)OCCn1cc(N3C(=O)OCC3C(F)F)nc1-2)C(N)=O ? 25.2

---

System: 931267-113-T-J1-PDC multicell spheroid viability
assay comment: Anticancer human tumor 931267-113-T-J1-PDC cell line growth inhibition [PI3K];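 also: viability read 7 days after compound addition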
measurement conditions: second compound 0.316 µM; first compound 0.00949 µM; hits give low values
readout label: viability, T/C

viability, T/C lookup needed for Cn1cnc2c(F)c(Nc3ccc(Br)cc3Cl)c(C(=O)NOCCO)cc21 + CC(Nc1ccc2c(c1)OCCn1cc(N3C(=O)OCC3C(F)F)nc1-2)C(N)=O , thanks. 78.3%

Could you do the same for Cn1cnc2c(F)c(Nc3ccc(Br)cc3Cl)c(C(=O)NOCCO)cc21 + Cc1nc(NC(=O)N2CCCC2C(N)=O)sc1-c1ccnc(C(C)(C)C(F)(F)F)c1 , please? 74.5%

Do the same for Cn1cnc2c(F)c(Nc3ccc(Br)cc3Cl)c(C(=O)NOCCO)cc21 + COc1c(OCCCN2CCOCC2)ccc2c3n(c(=NC(=O)c4cnc(N)nc4)nc12)CCN3 please 39.2%

Below: the item to evaluate.
Item Cn1cnc2c(F)c(Nc3ccc(Br)cc3Cl)c(C(=O)NOCCO)cc21 + CC(Nc1ncnc2nc[nH]c12)c1cc2cccc(Cl)c2c(=O)n1-c1ccccc1 has what recorded viability, T/C? 92.1%

---

In this section, each of the compounds is paired with its reported viability, T/C.
Tested on: 931267-113-T-J1-PDC multicell spheroid viability
assay comment: Anticancer human tumor 931267-113-T-J1-PDC cell line growth inhibition [PI3K];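 also: viability read 7 days after compound addition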
measurement conditions: second compound 0.0316 µM; first compound 0.316 µM; hits give low values
Provide the reading as a plain figure in %.

Some compounds with known viability, T/C results, for comparison:
Which viability, T/C reading was recorded for the compound CC1(C)CCC(Nc2ncc(C(F)(F)F)c(-c3c[nH]c4c(P(C)(C)=O)c(C#N)ccc34)n2)CN1 (stereo not drawn) + CC(Nc1ccc2c(c1)OCCn1cc(N3C(=O)OCC3C(F)F)nc1-2)C(N)=O ? 79.6

Also CC1(C)CCC(Nc2ncc(C(F)(F)F)c(-c3c[nH]c4c(P(C)(C)=O)c(C#N)ccc34)n2)CN1 (stereo not drawn) + Cc1nc(NC(=O)N2CCCC2C(N)=O)sc1-c1ccnc(C(C)(C)C(F)(F)F)c1 , if possible. 83.2

For Cn1ncc(Cl)c1-c1cc(C(=O)NC(CN)Cc2cccc(F)c2)sc1Cl (stereo not drawn) + CC(Nc1ncnc2nc[nH]c12)c1cc2cccc(Cl)c2c(=O)n1-c1ccccc1 then? 101

Same question for C[C@@H](NC(=O)c1ncnc(N)c1Cl)c1ncc(C(=O)Nc2cc(C(F)(F)F)c(Cl)cn2)s1 + Cc1nc(NC(=O)N2CCCC2C(N)=O)sc1-c1ccnc(C(C)(C)C(F)(F)F)c1 please. 110

Please examine the following record next.
// viability, T/C lookup, key: CC(C)NCC(C(=O)N1CCN(c2ncnc3c2C(C)CC3O)CC1)c1ccc(Cl)cc1 (stereo not drawn) + CC(Nc1ccc2c(c1)OCCn1cc(N3C(=O)OCC3C(F)F)nc1-2)C(N)=O 99.2
